Sourced from paper PMC10397247

Target: T1, 4H2143-bH
T1 chain: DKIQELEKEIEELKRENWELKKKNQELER
Assay: two-hybrid library CCNG1;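 also: natural log of median RNA to DNA barcode read ratio; higher means stronger binding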
Parameter: interaction score. Scope: all listed entries.
readout-label: interaction score

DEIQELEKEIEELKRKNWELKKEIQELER [4H121-bH]
0.472
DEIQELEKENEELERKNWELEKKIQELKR [4H182-bH]
0.14
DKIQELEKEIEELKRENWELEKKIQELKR [4H2134-bH]
0.0686
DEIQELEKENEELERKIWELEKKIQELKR [4H166-bH]
0.23
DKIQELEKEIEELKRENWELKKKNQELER [4H2143-bH]
0.693
